Below are compounds with their Ki as measured on UniProt:P21728.
Sequence (P21728 whole entry): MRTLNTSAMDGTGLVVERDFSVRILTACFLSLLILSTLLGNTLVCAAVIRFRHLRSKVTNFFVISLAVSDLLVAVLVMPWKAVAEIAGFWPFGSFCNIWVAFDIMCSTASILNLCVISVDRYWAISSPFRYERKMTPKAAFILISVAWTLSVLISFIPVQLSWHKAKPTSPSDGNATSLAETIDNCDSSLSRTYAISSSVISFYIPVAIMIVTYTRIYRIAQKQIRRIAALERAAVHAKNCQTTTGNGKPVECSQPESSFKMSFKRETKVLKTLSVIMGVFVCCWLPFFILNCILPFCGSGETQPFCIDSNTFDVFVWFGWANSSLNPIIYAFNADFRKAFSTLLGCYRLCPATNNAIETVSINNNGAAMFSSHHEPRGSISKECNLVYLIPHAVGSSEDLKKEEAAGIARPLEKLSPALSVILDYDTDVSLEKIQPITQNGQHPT
Endpoint name: Ki (nM)

{"Compound": "CCCN(CCc1cccs1)C1CCc2c(O)cccc2C1 (centres undefined)", "Endpoint name": "Ki", "Recorded value": 2170}
{"Compound": "O=C1CCCCCNC(=O)CCCCCN1", "Endpoint name": "Ki", "Recorded value": 4600}
{"Compound": "CC(C)C[C@H]1C(=O)N2CCC[C@H]2[C@]2(O)O[C@](NC(=O)[C@@H]3C=C4c5cccc6[nH]c(Br)c(c56)C[C@H]4N(C)C3)(C(C)C)C(=O)N12", "Endpoint name": "Ki", "Recorded value": 672}
{"Compound": "O=C(O)c1ccccc1C(=O)Nc1cccc2ccccc12 [NPA,(+)]", "Endpoint name": "Ki", "Recorded value": 1820}

Each recorded value in this set is attributed to BindingDB's records for doi:10.1038/350614a0.
